Values compiled from PubChem BioAssay (NCI).

Tested on: NCI-H322M lung
ASSAY PROCEDURE: NCI-60 one-dose screen, 48 h
RUN PARAMETERS: 10 µM
The panel holds about 83,000 compounds, 20% with a hit somewhere; the sample as a whole holds those more often. Calls of active or inactive are those of the source. The calls were made as follows: active = growth percent below 10; inactive = the rest.
Labels: Y for active, N for inactive

1) CS(=O)(=O)Nc1cccc(-c2cc(-c3ccccc3Cl)c(C#N)c(N)n2)c1 = N
2) Cc1[nH]nc2c1C(c1cnn(C)c1)C(C#N)=C(N)O2 (stereo unspecified) = N
3) CCOC(=O)CNC(=O)CCCCSc1ncnc2nc[nH]c12 = N
4) Nc1c(C(=O)Nc2ccccc2)sc2nc3c(cc12)CCCC3 = N
5) N#CCCN1C/C(=C/c2ccccc2)C(=O)/C(=C/c2ccccc2)C1 = N
6) COc1ccc2c(c1)sc1nc(-c3ccccc3)c(-c3ccsc3)n12 = N
7) COc1ccc(/C(=C2\O[C@@H]([C@H]3COC(C)(C)O3)[C@H]3OC(C)(C)O[C@@H]23)c2cc(OC)c(OC)c(OC)c2)cc1O = N
8) COc1cc(Nc2ccnc(NCCNc3ccnc4cc(Cl)ccc34)n2)cc(OC)c1 = N
9) Cc1cs/c(=N\NC(=O)c2cc(-c3cc4ccccc4o3)nn2-c2ccccc2)n1-c1ccccc1 = N
10) COc1ccc(-c2nn(-c3cccc(NC(=O)c4ccc(Cl)c(Cl)c4)c3)cc2-c2ccncc2)cc1Cl = N
11) COc1cccc(C2C3=C(COC3=O)N(CCO)c3cc(OC)ccc32)c1 (stereo unspecified) = N
12) Cc1ccc(-c2n[nH]c(=O)c3noc(-c4ccc(C)cc4)c23)cc1 = N
13) C[C@]12CC[C@@H]3c4ccc(O)cc4C[C@@H](O)[C@H]3[C@@H]1CC[C@@H]2O = N
14) NC(=S)N=Nc1c(O)c2ccccc2c2ccccc12 = N
15) CCc1ccc2c(c1)N(CCO)C1=C(C(=O)OC1)C2c1cc(OC)c(OC)c(OC)c1 (stereo unspecified) = N
16) O=C(O)CCCCSc1ncnc2nc[nH]c12 = N
17) CCOC(=O)CCC(NC(=O)c1ccc(N)cc1)C(=O)OCC (stereo unspecified) = N
18) CC(=O)O[C@]1(C)CC[C@H]2[C@H](CNCCc3ccc(Cl)cc3)C(=O)O[C@@H]2C2=C(C)C(=O)C[C@H]21 = N
19) CCOC(=O)N1C=CC2C=CC1C1C=CC=CC2N1C(=O)OCC (stereo unspecified) = N
20) CN(CCc1ccccn1)c1ccccc1 = N
21) c1ccc(CNc2ncnc3scc(-c4cccs4)c23)nc1 = N
22) COc1cc2nc(Nc3cccc(C(=O)O)c3)nc(N)c2cc1OC = N
23) CC(=O)c1cc(Br)ccc1O = N
24) Cc1cc(N(CCCNc2ccnc3cc(Cl)ccc23)Cc2ccc3c(c2)OCO3)nc(N2CCOCC2)n1 = N
25) CC(=O)/C(=C/c1ccccc1)C(=O)CC(C)C = N
26) CCN(CC)CCCC(C)Nc1ccc2ccc(Cl)cc2n1 (stereo unspecified) = N
27) Clc1ccc(Nc2ccnc(NCCCNc3ccnc4cc(Cl)ccc34)n2)cc1 = Y
28) CCCCCCN(CCCCCC)CC(O)c1ccc2c3c(cccc13)CC2 (stereo unspecified) = N
29) COc1ccc(Nc2ccnc(NCCNc3ccnc4cc(Cl)ccc34)n2)cc1 = N
30) COc1ccc(-c2cc(/C=C/C(=O)c3cc(OC)c(OC)c(OC)c3)[nH]n2)cc1OC = Y
31) O=C(c1ccc(Cl)cc1Cl)N1CCOCC1 = N

----------
Test system: COLO 205 colon
ASSAY PROCEDURE: NCI-60 one-dose screen, 48 h (100 = growth as untreated, 0 = no growth, -100 = all killed)
RUN PARAMETERS: 10 µM
Compounds without any hit were thinned out: in the full panel of roughly 83,000, 20% have a hit.
Mark each entry Met if its growth sits below 50%, and Not met for all others.

1. Nc1c(C(=O)Nc2ccccc2)sc2nc3c(cc12)C(O)CCC3 (stereo unspecified) = Met
2. CN(C)c1ccc(/C=C/C=N/NC(=O)c2cc(O)c(O)c(O)c2)cc1 = Not met
3. COc1ccc(-c2nn(-c3cccc(NC(=O)Nc4cc(C(F)(F)F)cc(C(F)(F)F)c4)c3)cc2-c2ccncc2)cc1Cl = Met
4. N#CSCC1CC(O)(c2ccccc2)CC(c2ccc(Cl)cc2)O1 (stereo unspecified) = Not met
5. COc1ccc(-c2cc(-c3cccc(NS(C)(=O)=O)c3)nc(N)c2C#N)cc1 = Met
6. COC(=O)C1(C)Cc2cc(OC(C)=O)c(OC(C)=O)cc2N1 (stereo unspecified) = Not met
7. O=[N+]([O-])c1ccc(N/N=C/c2cccc3ccccc23)nc1 = Not met
8. CC(C)=CCc1ccc(O)c(=O)cc1C(C)C = Met
9. c1ccc(CSc2nnc3c4c5c(sc4nc(-c4cccnc4)n23)CCCCCC5)cc1 = Met
10. COc1ccc2nc3cc(Cl)ccc3c(NCCNCC(C)O)c2c1 (stereo unspecified) = Met
11. Nc1ncn([C@@H]2O[C@H](CO)[C@@H](O)[C@H]2O)c(=O)n1 = Met
12. S=C1SCC(c2ccccc2)S1 (stereo unspecified) = Not met
13. CCCCCCN1CCN(Cc2ccc(N(CC)CC)cc2)C(=O)C1=O = Met
14. O=C(Nc1ccncc1)C(=O)c1cn(S(=O)(=O)c2cccc(Cl)c2)c2ccccc12 = Not met
15. O=C(Nc1ccc(CO)cc1)c1ccccc1Nc1ccnc(C(F)(F)F)c1 = Not met
16. O=C1Nc2ccccc2C1=NC1CCCCC1 = Not met
17. C#Cc1ccc(-n2c(/C=C/c3ccc4ccccc4n3)nc3ncccc3c2=O)cc1 = Met
18. CCn1cc(C(=O)O)c(=O)c2cnc(N3CCCC3)nc21 = Not met
19. COc1ccc(-c2nn(-c3cccc(NC(=O)c4cccc(C(F)(F)F)c4)c3)cc2-c2ccncc2)cc1Cl = Met
20. CN(C)N=Nc1nn(C(=O)Nc2ccc(Cc3ccccc3)cc2)c2ccccc12 = Met
21. CS(=O)(=O)Nc1ccc(Nc2c3ccccc3nc3cc(N)ccc23)cc1 = Not met
22. C(CCCC1=NCCO1)CCCC1=NCCO1 = Not met
23. Cc1cn(C2CCCCO2)c(=O)nc1NO (stereo unspecified) = Not met
24. CC(=O)O[C@]1(C)CC[C@H]2[C@H](CNCCc3ccc(Cl)cc3)C(=O)O[C@@H]2C2=C(C)C(=O)C[C@H]21 = Not met
25. c1ccc(C(NC2CC3CCC2C3)c2ccccc2)cc1 (stereo unspecified) = Not met
26. COc1cc(-c2nc(Nc3nc4ccccc4s3)[nH]c(=O)c2C#N)cc(OC)c1O = Not met
27. Cc1cccc(C)c1NC(=O)c1sc2nc3c(cc2c1N)C(=O)CCC3 = Met
28. CC(=O)n1c(-c2ccc(Cl)c(Cl)c2)cn(-c2ccc(Cl)cc2)c1=O = Met
29. COc1ccc(/C=C/C(C)=N/OCC(=O)O)cc1 = Not met
30. O=C(Nc1ccc(Cl)cc1)N1NC(c2ccc(Cl)cc2)C=C1c1ccccc1 (stereo unspecified) = Not met
31. CC/C(=C(/c1ccc(OCCN(C)C)cc1)c1ccc(OC(=O)CCCCCCCCC(=O)c2c(C)[nH]c(/C=C3\N=C(c4ccc[nH]4)C=C3OC)c2C)cc1)c1ccccc1 = Not met

----------
System: SF-295 CNS
ASSAY PROCEDURE: NCI-60 one-dose screen, 48 h (100 = growth as untreated, 0 = no growth, -100 = all killed)
RUN PARAMETERS: 10 µM
Procedure: Cells are grown in 96 well plates and exposed to the test compound for 48 hours. Compounds are tested at a single concentration, which is 10^-5 M for most compounds. The reported endpoint is percent growth (GI% or GIPRCNT), where numbers from 0 - 100% represent growth inhibition, and numbers from -100% - 0 represent cell death. For example, a value of 40 represents 60% growth inhibition. A value of 0 means no net growth occurred over the course of the experiment. […]
About 83,000 compounds went through this panel and 20% of them were active in at least one assay; those are over-represented in the sample as a whole.
growth reference
READOUT KIND: growth (%)

1) O=C(C[P+](c1ccccc1)(c1ccccc1)c1ccccc1)C[P+](c1ccccc1)(c1ccccc1)c1ccccc1 = -72.4
2) COc1ccc2c(c1)/C(=C\c1c[nH]c3ccc(OC)cc13)C(=O)N2 = 74
3) Cc1cn(C2CCCCO2)c(=O)nc1NO (centres undefined) = 106
4) Cc1ncc(-c2ccoc2)c(NC2CCCCCC2)n1 = 102

----------
Test system: SR leukemia
ASSAY PROCEDURE: NCI-60 one-dose screen, 48 h (100 = growth as untreated, 0 = no growth, -100 = all killed)
RUN PARAMETERS: 10 µM
This is part of a sample that, as a whole, favours compounds with a hit. Of some 83,000 tested, about 20% had one in any assay.
growth reference
READOUT KIND: growth (%)

1) CC/C(C)=C(\C)C(=O)O = 107
2) Fc1ccc(-c2nnc(-c3c(-c4ccc(F)cc4)nc4ccccn34)o2)cc1 = 47.3
3) NC(=O)SCC(=O)Nc1ccc(S(N)(=O)=O)cc1 = 110
4) N#Cc1ncc(-c2ccc(C(F)(F)F)cc2)c(NCc2cc(C(F)(F)F)cc(C(F)(F)F)c2)n1 = 12.1
5) COc1ccc2c(c1)O/C(=C\c1ncc([N+](=O)[O-])n1C)C2=O = 7.55
6) COC(=O)C(C(C[N+](=O)[O-])c1ccccc1)=P(c1ccccc1)(c1ccccc1)c1ccccc1 (configuration not stated) = 14.6
7) CC(=O)n1c(-c2ccc(Cl)c(Cl)c2)cn(-c2ccc(Cl)cc2)c1=O = 0.989
8) COc1ccc2c(c1)C(=O)c1c-2c(OCCN(C)C)nc2cc(OC)c(OC)cc12 = 1.83
9) CCOC(=O)CCC(NC(=O)c1ccc(N)cc1)C(=O)OCC (configuration not stated) = 121
10) CC1=C(N2CCOCC2)C(N2CCOCC2)=C(C)C(=O)C1=O = 97.4
11) Cc1ccc(C)c(C(O)(c2cc(C)ccc2C)C2(O)CCCCC2)c1 = 85.1
12) Cc1cc(=O)n2nnc3c4ccccc4ccc3n12 = 9.54
13) O=C(Nc1ccc(Cl)c(Cl)c1)Nc1c(Oc2ccc(Cl)c(Cl)c2)ccc(Cl)c1S(=O)(=O)O = 1.34
14) COc1cc(C(=O)/C=C/c2cc(-c3cc(OC)c(OC)c(OC)c3)n[nH]2)cc(OC)c1OC = -7.98
15) CN(C)CCNC(=O)c1cccn2c(=O)c3cc4ccccc4cc3nc12 = -29.9
16) Cc1cc(N(CCCNc2ccnc3cc(Cl)ccc23)Cc2ccc3c(c2)OCO3)nc(N2CCOCC2)n1 = -27.7
17) COc1ccc(-n2c(SCc3cc(OC)c(OC)c(OC)c3)nc3ccc(C)cc3c2=O)cc1 = 23
18) CC(=O)C1CCC2C3CC(F)C4=CC(=O)CCC4(C)C3C(O)CC12C (configuration not stated) = 92.9
19) O=C(NC(Cc1ccc(O)cc1)C(=O)N=Nc1c(O)[nH]c2ccccc12)c1ccccc1 (configuration not stated) = 92.7
20) COc1ccc(NC(=O)Cc2nc3nc4sc(C)c(C)c4c(=O)n3[nH]2)cc1 = 99.1
21) C/C(=N\Nc1nc2ccccc2s1)c1ccncn1 = 17.8
22) C/C(N)=C(\C#N)C(=O)c1ccccc1 = 112
